Data provenance is ChEMBL document CHEMBL5108039.

# Test system: CAL-27
# Procedure summary: Cytotoxicity against human CAL-27 cells assessed as cell growth inhibition
# Format: functional, cell-based
Measured metric: pIC50
Note on pIC50: it is the negative log10 of concentration, concentration in mol/L.

Exam item: Which pIC50 is reported for this molecule? COc1c(O)c(CN2CCN(CC(=O)Nc3nc(-c4cccc5ccccc45)cs3)CC2)c2c(c1O)C1O[C@H](CO)[C@@H](O)[C@H](O)C1OC2=O (some centres not stated)
Marked response: 4.24

Exam item: Report pIC50 for COc1c(O)c(CN2CCN(CC(=O)Nc3nc4c(Cl)cccc4s3)CC2)c2c(c1O)C1O[C@H](CO)[C@@H](O)[C@H](O)C1OC2=O (some centres not stated) please.
Marked response: 4.81

Exam item: Which value of pIC50 has been reported for COc1c(O)c(CN2CCN(S(=O)(=O)c3ccc(F)c(Cl)c3)CC2)c2c(c1O)C1O[C@H](CO)[C@@H](O)[C@H](O)C1OC2=O (some centres not stated) in the records?
Marked response: 4.03

Exam item: May I ask what pIC50 has been recorded for COc1ccc(-c2csc(NC(=O)CN3CCN(Cc4c(O)c(OC)c(O)c5c4C(=O)OC4C5O[C@H](CO)[C@@H](O)[C@@H]4O)CC3)n2)cc1 (some centres not stated) ?
Marked response: 4.80

Exam item: Which pIC50 value is on record for COc1c(O)c(CN2CCN(S(=O)(=O)c3ccc(C)cc3)CC2)c2c(c1O)C1O[C@H](CO)[C@@H](O)[C@H](O)C1OC2=O (some centres not stated) ?
Marked response: 4.25

Exam item: Can you share its pIC50? I mean this molecule: COc1c(O)c(CN2CCN(CC(=O)Nc3nc(-c4ccc5ccccc5c4)cs3)CC2)c2c(c1O)C1O[C@H](CO)[C@@H](O)[C@H](O)C1OC2=O (some centres not stated)
Marked response: 4.37

Exam item: Which pIC50 value is on record for COc1c(O)c(CN2CCN(CC(=O)Nc3nc(-c4ccccc4)cs3)CC2)c2c(c1O)C1O[C@H](CO)[C@@H](O)[C@H](O)C1OC2=O (some centres not stated) ?
Marked response: 4.68

Exam item: Bench note: what pIC50 did COc1c(O)c(CN2CCN(CC(=O)Nc3nc4ccc(F)cc4s3)CC2)c2c(c1O)C1O[C@H](CO)[C@@H](O)[C@H](O)C1OC2=O (some centres not stated) show?
Marked response: 4.28

Exam item: Which pIC50 reading was recorded for the molecule COc1c(O)c(CN2CCN(CC(=O)Nc3nc4c(C)cccc4s3)CC2)c2c(c1O)C1O[C@H](CO)[C@@H](O)[C@H](O)C1OC2=O (some centres not stated) ?
Marked response: 4.09

Exam item: Reported pIC50 for COc1c(O)c(CN2CCN(CC(=O)Nc3nc(-c4ccc(Cl)cc4)cs3)CC2)c2c(c1O)C1O[C@H](CO)[C@@H](O)[C@H](O)C1OC2=O (some centres not stated) : what is it?
Marked response: 4.33

Exam item: For the molecule CCOc1ccc2nc(NC(=O)CN3CCN(Cc4c(O)c(OC)c(O)c5c4C(=O)OC4C5O[C@H](CO)[C@@H](O)[C@@H]4O)CC3)sc2c1 (some centres not stated) , what pIC50 is on record?
Marked response: 4.08

Exam item: // lookup pIC50 for COc1c(O)c(CN2CCN(CC(=O)Nc3nc4ccc(C)cc4s3)CC2)c2c(c1O)C1O[C@H](CO)[C@@H](O)[C@H](O)C1OC2=O (some centres not stated)
Marked response: 4.20

Exam item: Give the measured pIC50 of COc1c(O)c(CN2CCN(S(=O)(=O)c3cccc4ccccc34)CC2)c2c(c1O)C1O[C@H](CO)[C@@H](O)[C@H](O)C1OC2=O (some centres not stated) .
Marked response: 4.13

Exam item: Look up pIC50: COc1c(O)c(CN2CCN(S(=O)(=O)c3ccc(I)cc3)CC2)c2c(c1O)C1O[C@H](CO)[C@@H](O)[C@H](O)C1OC2=O (some centres not stated)
Marked response: 4.38

Exam item: Look at this molecule and give its reported pIC50. COc1c(O)c(CN2CCN(CC(=O)Nc3nc4ccc([N+](=O)[O-])cc4s3)CC2)c2c(c1O)C1O[C@H](CO)[C@@H](O)[C@H](O)C1OC2=O (some centres not stated)
Marked response: 4.52

Exam item: Look up pIC50: COc1c(O)c(CN2CCN(S(=O)(=O)c3ccccc3)CC2)c2c(c1O)C1O[C@H](CO)[C@@H](O)[C@H](O)C1OC2=O (some centres not stated)
Marked response: 4.07

Exam item: Which pIC50 reading was recorded for the molecule COc1c(O)c(CN2CCN(S(=O)(=O)c3ccc([N+](=O)[O-])cc3)CC2)c2c(c1O)C1O[C@H](CO)[C@@H](O)[C@H](O)C1OC2=O (some centres not stated) ?
Marked response: 4.04
